All values here come from paper PMC9696494.

target of assay: α-amylase
test description: EnzChek Ultra Amylase assay kit, enzyme inhibition
Measured IC50, listed per entry for reference.
readout type: IC50 (µM)

INSERT INTO results (compound, result_units, endpoint_value) VALUES
  ('C[C@@H]1O[C@@H](Oc2cc(O)cc(O)c2C(=O)c2cccc(O)c2)[C@H](O)[C@H](O)[C@H]1O [compound 9, garcimangophenone C]', 'µM', 12.9),
  ('COc1cc2oc3cc(O)c(/C=C/C(C)(C)O)c(O)c3c(=O)c2c(CC=C(C)C)c1OC [compound 1]', 'µM', 17.8);
